Test system: HMLER
Test: cells
Format: cell-based, human
Conditions: 72 h
Square brackets hold non-standard residues; d marks the D form. Peptide text beside a SMILES is read from it.
Quantity: IC50 (nM)
Write it as a number; the unit nM goes unstated.

Sample answers from the record:
[
  {
    "Molecule": "CC(C)C[C@H](NC(=O)CN)C(=O)N[C@@H](CC(C)C)C(=O)N[C@@H](CCCCN)C(=O)N[C@@H](CC(C)C)C(=O)N[C@@H](CC(C)C)C(=O)N[C@@H](CCC(=O)O)C(=O)N[C@@H](CC(C)C)C(=O)N[C@@H](CC(C)C)C(=O)N[C@@H](CC(C)C)C(=O)N[C@@H](CCCCN)C(=O)N[C@@H](C)C(=O)N[C@@H](C)C(=O)NCC(=O)N[C@@H](Cc1c[nH]c2ccccc12)C(N)=O [KEK] (H-GLLKLLELLLKAAGW-NH2)",
    "Unit Name": "nM",
    "Recorded Measurement": 1600
  },
  {
    "Molecule": "CC(C)C[C@H](NC(=O)CN)C(=O)N[C@@H](CC(C)C)C(=O)N[C@@H](CCC(=O)O)C(=O)N[C@@H](CC(C)C)C(=O)N[C@@H](CC(C)C)C(=O)N[C@@H](Cc1c[nH]cn1)C(=O)N[C@@H](CC(C)C)C(=O)N[C@@H](CC(C)C)C(=O)N[C@@H](CC(C)C)C(=O)N[C@@H](CCCCN)C(=O)N[C@@H](C)C(=O)N[C@@H](C)C(=O)NCC(=O)N[C@@H](Cc1c[nH]c2ccccc12)C(N)=O [EHK] (H-GLLELLHLLLKAAGW-NH2)",
    "Unit Name": "nM",
    "Recorded Measurement": 1350
  }
]

# query: IC50 of entry CC(C)C[C@@H](NC(=O)CN)C(=O)N[C@H](CC(C)C)C(=O)N[C@H](CC(=O)O)C(=O)N[C@H](CC(C)C)C(=O)N[C@H](CC(C)C)C(=O)N[C@H](CCC(=O)O)C(=O)N[C@H](CC(C)C)C(=O)N[C@H](CC(C)C)C(=O)N[C@H](CC(C)C)C(=O)N[C@H](CCCCN)C(=O)N[C@H](C)C(=O)N[C@H](C)C(=O)NCC(=O)N[C@H](Cc1c[nH]c2ccccc12)C(N)=O [d-DEK] (H-G[dL][dL][dD][dL][dL][dE][dL][dL][dL][dK][dA][dA]G[dW]-NH2)
440

Next up: CC(C)C[C@H](NC(=O)CN)C(=O)N[C@@H](CC(C)C)C(=O)N[C@@H](CC(=O)O)C(=O)N[C@@H](CC(C)C)C(=O)N[C@@H](CC(C)C)C(=O)N[C@@H](Cc1c[nH]cn1)C(=O)N[C@@H](CC(C)C)C(=O)N[C@@H](CC(C)C)C(=O)N[C@@H](CC(C)C)C(=O)N[C@@H](Cc1c[nH]cn1)C(=O)N[C@@H](C)C(=O)N[C@@H](C)C(=O)NCC(=O)N[C@@H](Cc1c[nH]c2ccccc12)C(N)=O [DHH] (H-GLLDLLHLLLHAAGW-NH2)
21400

Next up: CC(C)C[C@H](NC(=O)CN)C(=O)N[C@@H](CC(C)C)C(=O)N[C@@H](Cc1c[nH]cn1)C(=O)N[C@@H](CC(C)C)C(=O)N[C@@H](CC(C)C)C(=O)N[C@@H](CCC(=O)O)C(=O)N[C@@H](CC(C)C)C(=O)N[C@@H](CC(C)C)C(=O)N[C@@H](CC(C)C)C(=O)N[C@@H](CCCCN)C(=O)N[C@@H](C)C(=O)N[C@@H](C)C(=O)NCC(=O)N[C@@H](Cc1c[nH]c2ccccc12)C(N)=O [HEK] (H-GLLHLLELLLKAAGW-NH2)
2350
